- TARGET OF ASSAY: human c-Met (HGFR), full length, on the cell surface (human, UniProt P08581 25-1390)
- Sequence (P08581 25-1390 limits assumed): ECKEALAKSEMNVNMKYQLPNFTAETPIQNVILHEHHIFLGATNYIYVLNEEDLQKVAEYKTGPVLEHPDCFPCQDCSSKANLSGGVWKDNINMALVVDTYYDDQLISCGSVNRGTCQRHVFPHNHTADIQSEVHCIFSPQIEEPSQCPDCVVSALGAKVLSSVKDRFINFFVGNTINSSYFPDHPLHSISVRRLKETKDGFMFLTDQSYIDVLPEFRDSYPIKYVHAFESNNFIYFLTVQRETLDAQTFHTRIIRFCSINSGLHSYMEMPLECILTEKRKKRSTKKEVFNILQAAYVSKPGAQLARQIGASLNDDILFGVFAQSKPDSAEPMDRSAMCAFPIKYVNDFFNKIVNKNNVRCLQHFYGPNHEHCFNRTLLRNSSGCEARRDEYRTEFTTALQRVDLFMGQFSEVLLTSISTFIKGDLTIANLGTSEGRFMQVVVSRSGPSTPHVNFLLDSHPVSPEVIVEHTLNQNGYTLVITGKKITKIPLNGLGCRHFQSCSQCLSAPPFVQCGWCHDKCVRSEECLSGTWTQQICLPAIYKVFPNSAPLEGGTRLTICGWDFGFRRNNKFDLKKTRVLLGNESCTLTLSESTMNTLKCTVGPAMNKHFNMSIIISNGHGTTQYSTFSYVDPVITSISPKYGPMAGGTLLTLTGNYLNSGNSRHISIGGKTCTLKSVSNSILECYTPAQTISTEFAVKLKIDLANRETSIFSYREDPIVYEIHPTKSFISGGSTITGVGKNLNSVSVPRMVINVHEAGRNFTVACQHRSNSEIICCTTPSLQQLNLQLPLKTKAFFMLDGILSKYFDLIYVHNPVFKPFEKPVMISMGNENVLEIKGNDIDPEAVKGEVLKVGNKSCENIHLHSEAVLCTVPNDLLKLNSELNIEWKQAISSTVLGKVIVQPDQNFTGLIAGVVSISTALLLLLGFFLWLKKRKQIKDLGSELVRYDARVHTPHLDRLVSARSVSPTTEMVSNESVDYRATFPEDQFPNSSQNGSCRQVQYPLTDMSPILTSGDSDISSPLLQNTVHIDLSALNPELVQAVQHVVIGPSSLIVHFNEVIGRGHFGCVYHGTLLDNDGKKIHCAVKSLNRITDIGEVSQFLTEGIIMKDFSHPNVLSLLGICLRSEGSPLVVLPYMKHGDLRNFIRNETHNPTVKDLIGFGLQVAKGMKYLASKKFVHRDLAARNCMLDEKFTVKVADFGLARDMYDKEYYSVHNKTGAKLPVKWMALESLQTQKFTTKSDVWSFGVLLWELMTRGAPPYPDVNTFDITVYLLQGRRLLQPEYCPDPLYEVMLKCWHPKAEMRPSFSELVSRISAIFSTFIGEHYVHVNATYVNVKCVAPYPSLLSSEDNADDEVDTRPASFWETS
- TEST: cell-based or functional assay
VALUE KIND: Efficacy (%), in vitro cytotoxicity, PC-3, -HGF
Numbers only here, please. The scale is %.

Q: Quickly give me recorded Efficacy (%), in vitro cytotoxicity, PC-3, -HGF for ADC3 (antibody, human IgG1, kappa, V domains shown, vc-seco-DUBA linker-drug on the engineered cysteine at HC position 41 (Kabat); DAR 1.1) VH: QIQLQQSGPELVKPGASVKISCKASGYTFTDYYLNWVKQRCGQGLEWIGLIFPGNDKTEYSEKFKGKATLTVDTSSSTAYIQLSRLSSEDSAIYFCSGGDYGGFVYWGQGTLVTVSS VL: DIQMTQSPTSLSASVGETVTITCGASENIYGALNWYQRKQGKSPQLLIYGATNLADGMSSRFSGSGSGRQFSLKINSLHPDDVATYFCQNVLSSPLTFGSGTKLEIKR
A: 24
